- Test system: immediate type asthmatic response
- Assay Info: Effect on experimental immediate type asthma model in guinea pigs (airway resistance)
- Assay type: in vivo, guinea pig (male hartley guinea pigs)
- Particulars: 0.2 mg/kg i.v., 1 hour before and 3 hours after challenge; airway resistance 1 minute after challenge
// reported immediate type asthma inhibition % per item
Readout Type: immediate type asthma inhibition %

Molecule: CCCCCCCCOc1c(O[C@H]2O[C@H](CO)[C@@H](O)[C@H](O)[C@@H]2O)c2ccc(NC(=O)/C=C/c3cc(OC)c(O[C@H]4O[C@H](CO)[C@@H](O)[C@H](O)[C@@H]4O)c(OC)c3)cc2n(C)c1=O [Compound 32]
Assay Target: immediate type asthmatic response
Readout Type: immediate type asthma inhibition %
Test Result: 26%
//
Molecule: CCCCCCCCOc1c(O[C@@H]2O[C@H](C(=O)O)[C@@H](O)[C@H](O)[C@H]2O)c2ccc(NC(=O)/C=C/c3cc(OC)c(O[C@@H]4O[C@H](C(=O)O)[C@@H](O)[C@H](O)[C@H]4O)c(OC)c3)cc2n(C)c1=O [Compound 14]
Assay Target: immediate type asthmatic response
Readout Type: immediate type asthma inhibition %
Test Result: 29%
